Test: physchem
Settings: water
measured.attribute: solubility at 1 h (µg/mL)
Dear colleague, please return just the value in µg/mL, with no unit written.

Prompt line: Name the reported solubility at 1 h value associated with the molecule CCCCOCCOCCOCc1cc2c(cc1CCC)OCO2 [piperonyl butoxide]
Response line: 66

Numbers sourced from patent US4524068A.
